Data provenance: PubChem BioAssay AID1996

# condition label: buffer; pH 7.4; 200.0 µM

molecule	solubility kinetic
COc1ccc(OC)c(/C=C/C(=O)NCCc2nc3ccccc3[nH]2)c1	46.4 µg/mL
COc1ccccc1CNC(=O)CNC(=O)c1sc2ccccc2c1Cl	7.6 µg/mL
COc1ccc(S(=O)(=O)N2CCN(C(=O)C3CC3)CC2)cc1	48.6 µg/mL
O=C(CN1C(=O)c2ccccc2S1(=O)=O)NCc1ccccc1	> 49.6 µg/mL
Cc1nn(CC(=O)N2CCN(C)CC2)c(=O)c2ccccc12	> 45.1 µg/mL
COc1cccc2c1SCc1ccccc1C2CC(N)=O (stereo unspecified)	39.2 µg/mL

---

# condition label: buffer; pH 7.4; 200.0 µM
# binarize solubility kinetic: threshold 20 µg/mL inclusive, high side criterion met, low side criterion not met

molecule	group
COc1ccc(C(C)NC(=O)CCc2ccccc2)cc1 (configuration not stated)	criterion met
CN(c1ccccc1)S(=O)(=O)c1ccc2c(c1)oc(=O)n2C	criterion met
O=C(C1CC1)N1CCN(c2ccc(F)cc2)CC1	criterion met
C=CCN1C(=O)C2(OCCCO2)c2cccc(Cl)c21	criterion not met
COc1ccc(CCNC(=O)c2noc(C(C)C)c2[N+](=O)[O-])cc1OC	criterion met
Cc1cc(OCC(=O)N(C)Cc2ccccc2)cc(C)c1Cl	criterion not met
CSc1ccc(S(=O)(=O)Nc2ccc3c(c2)NC(=O)CC3)cc1	criterion not met
O=C(COc1ccc(F)cc1F)Nc1cccnc1	criterion met
CCCOc1ccccc1/C=C1\SC(N)=NC1=O	criterion not met
Cc1cccc(NC(=O)Cc2ccc(-c3ccccc3)cc2)n1	criterion not met
COc1ccc(NCC(=O)Nc2cccc(S(=O)(=O)N3CCCC3)c2)cc1Cl	criterion not met
CCOC(=O)c1c(O)cc(C)cc1Nc1ccccc1	criterion not met
